Every entry's value here was drawn from paper PMC6471528.

# Tested on: V79 (fibroblast from Chinese hamster lung)
# methodNotes: Sulforhodamine B cytotoxicity assay, V79
# Assay type: cell-based
# details: Cricetulus griseus, SRB assay, 48 h, mean (SD), n = 3
parameter: IC50 (µM)

>  <compound>
Cc1cc(C)c(C(=O)NCC(=O)N/N=C/c2cc([N+](=O)[O-])ccc2Cl)c(S)n1 [PS39]

>  <readoutUnits>
µM

>  <reportedMeasurement>
147

$$$$
>  <compound>
CCOc1ccccc1/C=N/NC(=O)CNC(=O)c1c(C)cc(C)nc1S [PS42]

>  <readoutUnits>
µM

>  <reportedMeasurement>
162

$$$$
>  <compound>
Cc1cc(C)c(C(=O)NCC(=O)N/N=C/c2ccc(C(F)(F)F)cc2)c(S)n1 [PS38]

>  <readoutUnits>
µM

>  <reportedMeasurement>
172

$$$$
